What IC50, inhibition of PTHrP(1-34)-induced cAMP accumulation was measured for each of the following?
Biological target: T1, human PTH1R overexpressed on CHO cells (human, UniProt Q03431 27-593)
T1 sequence (looked up): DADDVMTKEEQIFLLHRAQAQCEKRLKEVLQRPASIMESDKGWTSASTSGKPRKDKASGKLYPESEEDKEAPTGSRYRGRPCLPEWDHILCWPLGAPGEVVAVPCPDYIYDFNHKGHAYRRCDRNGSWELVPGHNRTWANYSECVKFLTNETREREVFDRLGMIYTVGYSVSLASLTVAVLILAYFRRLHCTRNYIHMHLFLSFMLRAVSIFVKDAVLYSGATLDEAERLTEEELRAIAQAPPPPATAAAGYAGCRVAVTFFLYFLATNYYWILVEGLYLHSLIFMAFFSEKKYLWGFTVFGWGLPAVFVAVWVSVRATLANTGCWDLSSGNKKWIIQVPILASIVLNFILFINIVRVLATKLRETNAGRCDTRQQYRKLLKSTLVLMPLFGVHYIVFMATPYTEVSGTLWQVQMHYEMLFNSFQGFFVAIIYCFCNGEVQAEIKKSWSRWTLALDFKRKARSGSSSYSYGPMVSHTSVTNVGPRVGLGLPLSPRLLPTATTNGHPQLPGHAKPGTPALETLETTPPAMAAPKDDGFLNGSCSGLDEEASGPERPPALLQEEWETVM
Assay: cell-based or functional assay

The examples below pair each entry with its known result.
Binder	Endpoint Value
XPA.85.344 (antibody, V domains shown, Light-chain-shuffled variant of XPA.85.012) VH: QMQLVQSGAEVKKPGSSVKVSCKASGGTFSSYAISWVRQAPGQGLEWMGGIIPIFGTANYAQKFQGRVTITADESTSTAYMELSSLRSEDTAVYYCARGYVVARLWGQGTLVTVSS VL: DVVMTQTPLSLSVTPGQPASFSCKSTQSLLWRDGNTYLYWYLQKPGQSPQLLIYEVSGRFSGVPERFSGSGSGTDFTLEISRVEAEDVGVYYCMQSIHFPLTFGGGTKLEIK	15.3 nM
XPA.85.346 (antibody, V domains shown, Light-chain-shuffled variant of XPA.85.012) VH: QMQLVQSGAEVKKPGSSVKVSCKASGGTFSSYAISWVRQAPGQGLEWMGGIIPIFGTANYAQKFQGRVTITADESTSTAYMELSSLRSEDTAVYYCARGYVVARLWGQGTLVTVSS VL: DIVMTQTPLSLSVTPGQPASITCKSSQSLLHIDGKTYLYWFLQKPGQPPQLLIYEVSNRFSGVPDRFSGSGSGTDFTLKISRVEAEDVGLYYCMQSLHLPITFGQGTRLEIK	14.6 nM

Okay, next one:
Q: What value of IC50, inhibition of PTHrP(1-34)-induced cAMP accumulation has been reported for the following binder? XPA.85.334 (antibody, V domains shown, Light-chain-shuffled variant of XPA.85.012) VH: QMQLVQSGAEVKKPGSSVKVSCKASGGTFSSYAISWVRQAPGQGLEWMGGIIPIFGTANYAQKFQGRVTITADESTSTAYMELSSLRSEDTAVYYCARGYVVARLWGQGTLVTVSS VL: DIVMTQTPLSLSVTPGQPASITCKSSQSLLHIDGKTYLYWFLQKPGQPPQLLIYEVSNRFSGVPDRFSGTGSGTDFTLKISRVEAEDVGVYYCMQSLHFPITFGPGTRLEIK
A: 12.4 nM
